Read-out: Forkhead box O3 (FOXO3), FOXO3 (gene 2309)
experimentSummary: LTEA_HepaRG_FOXO3: Life Technologies and Expression Analysis (LTEA) Assay for Forkhead box O3 (FOXO3) using HepaRG (AID 2283459)
measurementParameters: mRNA level, 48 h; actives raise or lower the signal
Active and inactive are the calls of the source. Rule for the calls: active = hit-call score of the fitted dose curve at least 0.9, where 1 is the maximum; inactive = score below 0.9.
A correct response names exactly one class from active, inactive

The following compounds have reported results that may help.
CN1C(=O)N(c2ccccc2Br)Cc2cnc(Nc3ccc4c(c3)OCC(CO)O4)nc21 (configuration not stated) ... inactive
CCCCCCCCCCCO ... inactive

Let us examine a further case.
Please share the test call associated with CC(C)(c1cc(Br)c(O)c(Br)c1)c1cc(Br)c(O)c(Br)c1 .
active

====

Read-out: Lipoprotein lipase (LPL), LPL (gene 4023)
experimentSummary: LTEA_HepaRG_LPL: Life Technologies and Expression Analysis (LTEA) Assay for Lipoprotein lipase (LPL) using HepaRG (AID 2283515)
measurementParameters: mRNA level, 48 h; actives raise or lower the signal
Calls of active or inactive are those of the source. Rule for the calls: active = hit-call score of the fitted dose curve at least 0.9, where 1 is the maximum; inactive = score below 0.9.
Please state which outcome applies, choosing from t for active, f for inactive

As a guide, the following entries are already answered.
CC[C@@H]1C[C@H](N(Cc2cc(C(F)(F)F)cc(C(F)(F)F)c2)C(C)=O)c2cc(C(F)(F)F)ccc2N1C(=O)OC(C)C ... f
Cc1ccc(C(C)C)cc1 ... f
Cc1cc2c(cc1C(F)(F)F)N(C(=O)Nc1ccc(Oc3cccnc3C)nc1)CC2 ... t

Look up the recorded call for CCCC(=O)OCCC(C)C in this test.
f

# fetch the recorded call for COc1cccc([C@H](O)C2CCN(CCc3ccc(F)cc3)CC2)c1OC here
t

Identify the outcome logged in this assay for the compound shown: CCCCCc1ccc(N)cc1
f

====

experimentSummary: CCTE_Padilla_ZF_144hpf_TERATOSCORE: (Legacy) CCTE's 144 Hour Post-fertilization zebrafish Assay Teratoscore, Padilla Lab (AID 2283679)
Active and inactive are the calls of the source. Rule for the calls: active = hit-call score of the fitted dose curve at least 0.9, where 1 is the maximum; inactive = score below 0.9.
One label from this list, please: YES for active, NO for inactive

Recorded results for 3 compounds are shown here.
CN(C)C(=O)C1(N2CCCCC2)CCN(CC[C@@]2(c3ccc(Cl)c(Cl)c3)CN(C(=O)c3ccccc3)CCO2)CC1 ... YES
Cc1cc(F)ccc1-c1cc(N2CC[C@@H](O)[C@H]2CO)ncc1N(C)C(=O)C(C)(C)c1cc(C(F)(F)F)cc(C(F)(F)F)c1 ... YES
C[C@]12CC[C@@H]3c4ccc(O)cc4CC[C@H]3[C@@H]1CC[C@H]2O ... YES

Kindly provide the recorded test outcome for the following compound: CC(O)CC(C)(C)O (stereo not given)
NO

====

experimentSummary: BSK_LPS_PGE2: BioMAP Diversity Plus: LPS Assay for Prostaglandin E2 (PGE2) Biomarker Activity (AID 2283082)
measurementParameters: primary human HUVEC with PBMC; actives raise or lower the signal
The source made the active and inactive calls. How the source made its calls: active means hit-call score of the fitted dose curve at least 0.9, where 1 is the maximum; inactive means score below 0.9.
Result category, one only: active, inactive

c1ccc(C[n+]2cccc3ccccc32)cc1 ... inactive

Which outcome was entered for the molecule C[C@]12CC[C@@H]3c4ccc(O)cc4CC[C@H]3[C@@H]1CCC2=O in this test?
inactive

Assay result, entry Cc1c2ccccc2c(C)c2c1ccc1ccccc12 — outcome?
inactive

How did this test come out for CCCCCCCCCCCC[N+](C)(C)C ?
inactive
